# test name: activity coefficient (dimensionless); of the first substance listed, at infinite dilution; xn = mol fraction of the nth substance listed
# measurement conditions: 343.8 K; Liquid; Chromatography; x1 = 0
Output true for activity coefficient not less than 2; output false otherwise.

compound: CCCCCCO [hexan-1-ol] + CCOS(=O)(=O)[O-].CCn1cc[n+](C)c1
label value: true

compound: CO [methanol] + CCOS(=O)(=O)[O-].CCn1cc[n+](C)c1
label value: false

compound: CCCCCCCC=O [octanal] + CCOS(=O)(=O)[O-].CCn1cc[n+](C)c1
label value: true

compound: CCCCO [butan-1-ol] + CCOS(=O)(=O)[O-].CCn1cc[n+](C)c1
label value: false

compound: CCCc1ccccc1 [propylbenzene] + CCOS(=O)(=O)[O-].CCn1cc[n+](C)c1
label value: true
